Target: BRD4 (BDI_K57-E168) (Homo sapiens, UniProt O60885)
Construct: BD1: amino acids K57-E168
Assay: TR-FRET bromodomain binding assay, BRD4 first bromodomain
Conditions: His-tagged BD1, 100 nM Alexa647 probe; assay protocol D or F as given per row in c1; Ki calculated from IC50
Measured Quantity: Ki (nM)

>  <Compound>
COc1ccc(F)cc1CC(=O)Nc1ccc2c(c1)-c1cn(C)c3c(=O)[nH]cc(c13)CN2c1ccc(F)cc1 [Example 65]

>  <Scale Unit>
nM

>  <Ki>
3.92

$$$$

A: Cn1cc2c3c(c[nH]c(=O)c31)CN(C1CCN(C(=O)OC(C)(C)C)CC1)c1ccc(CS(C)(=O)=O)cc1-2 [Example 80]
B: Cc1ccc(F)cc1CNC(=O)c1ccc2c(c1)-c1cn(C)c3c(=O)[nH]cc(c13)CN2c1ccc(F)cc1 [Example 57]
[ask] In terms of reported Ki, does A or B have the smaller number? Response format: the label of the selected entry.
[reply] B
(B: 1.72 nM, A: 3.04 nM)

* * *

Molecular target: BRD4 (BDII_E352-M457) (Homo sapiens, UniProt O60885)
Construct: protocol
Test: TR-FRET bromodomain binding assay, BRD4 second bromodomain
pKi: −log10 of the molar value.
Measured Quantity: pKi

>  <Smi>
Cn1cc2c3c(c[nH]c(=O)c31)CN(c1ccc(F)cc1)c1ccc(NC(=O)CCCC(=O)Nc3ccccc3)cc1-2

>  <System Under Test>
BRD4 (BDII_E352-M457) (Homo sapiens, UniProt O60885)

>  <Measured Quantity>
pKi

>  <Measured Number>
7.60

$$$$

a: Cn1cc2c3c(c[nH]c(=O)c31)CN(c1ccc(F)cc1)c1ccc(NC(=O)CCN3CCCCC3)cc1-2
b: Cn1cc2c3c(c[nH]c(=O)c31)CN(C(=O)c1ccccc1)c1ccc(CS(C)(=O)=O)cc1-2
[ask] Lab notebook, comparison: a versus b , higher pKi goes to which? Response format: the label of the selected entry.
[reply] a
(a: 7.71, b: 7.01)

* * *

Target: BRD4 (BDII_E352-M457) (Homo sapiens, UniProt O60885)
Construct: protocol
Test: TR-FRET bromodomain binding assay, BRD4 second bromodomain
Measured Quantity: Ki (nM)

>  <Compound>
Cn1cc2c3c(c[nH]c(=O)c31)CN(c1ccc(F)cc1)c1ccc(NC(=O)Cc3cc(F)ccc3F)cc1-2 [Example 52]

>  <Measured Quantity>
Ki

>  <Scale Unit>
nM

>  <Measured Number>
55.9

$$$$
>  <Compound>
Cn1cc2c3c(c[nH]c(=O)c31)CN(c1ccc(F)cc1)c1ccc(NCCCn3cccn3)cc1-2 [Example 39]

>  <Measured Quantity>
Ki

>  <Scale Unit>
nM

>  <Measured Number>
12.3

$$$$

P: Cn1cc2c3c(c[nH]c(=O)c31)CN(c1ccc(F)cc1)c1ccc(NC(=O)Cc3cc(F)ccc3C(F)(F)F)cc1-2 [Example 51]
Q: CC(=O)N1CCC(N2Cc3c[nH]c(=O)c4c3c(cn4C)-c3cc(N)ccc32)CC1 [Example 73]
R: Cn1cc2c3c(c[nH]c(=O)c31)CN(c1ccc(F)cc1)c1ncc(NC(=O)Cc3cc(F)ccc3Cl)cc1-2 [Example 17]
S: CC(=O)N1CCC(N2Cc3c[nH]c(=O)c4c3c(cn4C)-c3cc(NC(=O)Cc4cc(F)ccc4Cl)ccc32)CC1 [Example 76]
T: CC(NC(=O)c1ccc2c(c1)-c1cn(C)c3c(=O)[nH]cc(c13)CN2c1ccc(F)cc1)c1ccc(Cl)cc1Cl (centres unmarked) [Example 61]
[ask] List from greatest to least Ki. List the labels according to the requested ordering.
[reply] T, P, Q, S, R
